Would you mind telling me the reported RBC of each entry?
species: Rattus norvegicus; test: Open TG-GATES - Regimen: Single; type: toxicity, organism-based, Sprague-Dawley; parameters: regimen Single, gender Male, age 6 weeks; settings: in vivo, po, 0 mg/kg, 6 h, tissue Blood, route gavage, dose level Control
Quick note: give the figure in x10_4/ul, leave out the unit.

Inquiry: Please report the recorded RBC for Cc1nnc2n1-c1ccc(Cl)cc1C(c1ccccc1Cl)=NC2 .
Reply text: 639.4

Inquiry: Now the same for CCCc1cc(=O)[nH]c(=S)[nH]1
Reply text: 606.2

Inquiry: Please give the result for CCOc1ccc(NC(C)=O)cc1 too.
Reply text: 656.6

Inquiry: Now give it for CN/C(=N/CCSCc1nc[nH]c1C)NC#N too.
Reply text: 607.6

Inquiry: Ok, now CN(C)CCC(c1ccc(Cl)cc1)c1ccccn1 (stereo not drawn)
Reply text: 618.2

Inquiry: Item: CS(=O)(=O)O.Cc1ccc(NC(=O)c2ccc(CN3CCN(C)CC3)cc2)cc1Nc1nccc(-c2cccnc2)n1 [IMATINIB MESYLATE]
Reply text: 615.4

Inquiry: Queued: CNC(=C[N+](=O)[O-])NCCSCc1ccc(CN(C)C)o1
Reply text: 608.8

Inquiry: Then what about the compound O=C(OC[C@H]1O[C@@H](OC(=O)c2cc(O)c(O)c(OC(=O)c3cc(O)c(O)c(O)c3)c2)[C@H](OC(=O)c2cc(O)c(O)c(OC(=O)c3cc(O)c(O)c(O)c3)c2)[C@@H](OC(=O)c2cc(O)c(O)c(OC(=O)c3cc(O)c(O)c(O)c3)c2)[C@@H]1OC(=O)c1cc(O)c(O)c(OC(=O)c2cc(O)c(O)c(O)c2)c1)c1cc(O)c(O)c(OC(=O)c2cc(O)c(O)c(O)c2)c1 ?
Reply text: 596

====

Exercise: state measured TBIL for each of the molecules provided.
species on record: Rattus norvegicus; assay: Open TG-GATES - Regimen: Daily Repeat; assay type: toxicity, organism-based, Sprague-Dawley; design: regimen Daily Repeat, gender Male, age 6 weeks; conditions: in vivo, po, 0 mg/kg, […], tissue Plasma, route gavage, dose level Control, time 28 day

Inquiry: Consider the molecule shown here: O=C(OC[C@H]1O[C@@H](OC(=O)c2cc(O)c(O)c(OC(=O)c3cc(O)c(O)c(O)c3)c2)[C@H](OC(=O)c2cc(O)c(O)c(OC(=O)c3cc(O)c(O)c(O)c3)c2)[C@@H](OC(=O)c2cc(O)c(O)c(OC(=O)c3cc(O)c(O)c(O)c3)c2)[C@@H]1OC(=O)c1cc(O)c(O)c(OC(=O)c2cc(O)c(O)c(O)c2)c1)c1cc(O)c(O)c(OC(=O)c2cc(O)c(O)c(O)c2)c1 What is its recorded TBIL?
Reply text: 0.2 mg/dL

Inquiry: Please do the same for CN(C)CCC(c1ccc(Cl)cc1)c1ccccn1 (stereo unspecified) as well.
Reply text: 0.026 mg/dL

Inquiry: Another: CN1C(=O)CCS(=O)(=O)C1c1ccc(Cl)cc1 (stereo unspecified)
Reply text: 0.062 mg/dL

Inquiry: Next molecule up: NC1=NC(=O)C(c2ccccc2)O1 (stereo unspecified)
Reply text: 0.022 mg/dL

Inquiry: Please answer likewise for Nc1c2c(nc3ccccc13)CCCC2
Reply text: 0.006 mg/dL

Inquiry: Cool, now CN/C(=N/CCSCc1nc[nH]c1C)NC#N
Reply text: 0.2 mg/dL

====

species on record: Rattus norvegicus; assay: Open TG-GATES - Regimen: Daily Repeat; type: toxicity, organism-based, Sprague-Dawley; set-up: regimen Daily Repeat, gender Male, age 6 weeks; conditions: in vivo, po, 0 mg/kg, […], tissue Blood, route gavage, dose level Control, time 28 day
Would you kindly list Fbg for each of these compounds?
Kindly provide the numeric value in mg/dL only, without the unit symbol.

Inquiry: Look at this compound and give its reported Fbg. Nc1c2c(nc3ccccc13)CCCC2
Reply text: 321

Inquiry: Now the same for CN1C(=O)CCS(=O)(=O)C1c1ccc(Cl)cc1 (stereo unspecified)
Reply text: 293.6

Inquiry: What would you report for CCOc1ccc(NC(C)=O)cc1 ?
Reply text: 276

Inquiry: Also check COC(=O)C1=C(C)NC(C)=C(C(=O)OC)C1c1ccccc1[N+](=O)[O-]
Reply text: 313.6

Inquiry: Brc1ccccc1 ?
Reply text: 301

Inquiry: How about this compound: CCCc1cc(=O)[nH]c(=S)[nH]1
Reply text: 223.8

====

species: Rattus norvegicus; assay: Open TG-GATES - Regimen: Single; type: toxicity, organism-based, Sprague-Dawley; parameters: regimen Single, gender Male, age 6 weeks; conditions: in vivo, po, 0 mg/kg, 6 h, tissue Plasma, route gavage, dose level Control
For each record, write down the corresponding gamma-GTP.
Answer in IU/L, number only, no unit symbol.

Inquiry: What measured gamma-GTP goes with CN(C)CCC(c1ccc(Cl)cc1)c1ccccn1 (configuration not stated) [CHLORPHENIRAMINE] ?
Reply text: 1.2

Inquiry: Same question, Brc1ccccc1 [BROMOBENZENE] this time
Reply text: 1.2

Inquiry: What do we get for NC1=NC(=O)C(c2ccccc2)O1 (configuration not stated) [PEMOLINE] ?
Reply text: 1.2

Inquiry: Same question for CCCc1cc(=O)[nH]c(=S)[nH]1 [PROPYLTHIOURACIL] please.
Reply text: 1.8

Inquiry: Record: Nc1c2c(nc3ccccc13)CCCC2 [TACRINE]
Reply text: 1.2

Inquiry: Check CS(=O)(=O)O.Cc1ccc(NC(=O)c2ccc(CN3CCN(C)CC3)cc2)cc1Nc1nccc(-c2cccnc2)n1 [IMATINIB MESYLATE] too.
Reply text: 0.9

Inquiry: Moving on to CN/C(=N/CCSCc1nc[nH]c1C)NC#N [CIMETIDINE]
Reply text: 1.4

====

species: Rattus norvegicus; assay: Open TG-GATES - Regimen: Daily Repeat; assay type: toxicity, organism-based, Sprague-Dawley; set-up: regimen Daily Repeat, gender Male, age 6 weeks; conditions: in vivo, po, 300 mg/kg, 72 h, tissue Plasma, route gavage, dose level Middle, time 3 day
Classify by measured GLC: T if it is equal to or exceeds 200 mg/dL, F if it is smaller.

Inquiry: Check this compound for GLC at or above 200 mg/dL: O=C(OC[C@H]1O[C@@H](OC(=O)c2cc(O)c(O)c(OC(=O)c3cc(O)c(O)c(O)c3)c2)[C@H](OC(=O)c2cc(O)c(O)c(OC(=O)c3cc(O)c(O)c(O)c3)c2)[C@@H](OC(=O)c2cc(O)c(O)c(OC(=O)c3cc(O)c(O)c(O)c3)c2)[C@@H]1OC(=O)c1cc(O)c(O)c(OC(=O)c2cc(O)c(O)c(O)c2)c1)c1cc(O)c(O)c(OC(=O)c2cc(O)c(O)c(O)c2)c1
Reply text: T

Inquiry: And Cc1nnc2n1-c1ccc(Cl)cc1C(c1ccccc1Cl)=NC2 ?
Reply text: F

Inquiry: Please answer likewise for CCOc1ccc(NC(C)=O)cc1
Reply text: F

Inquiry: Follow-up entry: COC(=O)C1=C(C)NC(C)=C(C(=O)OC)C1c1ccccc1[N+](=O)[O-]
Reply text: F

====

organism: Rattus norvegicus; assay: Open TG-GATES - Regimen: Daily Repeat; type: toxicity, organism-based, Sprague-Dawley; parameters: regimen Daily Repeat, gender Male, age 6 weeks; conditions: in vivo, po, 100 mg/kg, […], tissue Blood, route gavage, dose level Low, time 7 day
// NB: equality with 20% counts as FALSE; only Neu strictly below is TRUE

Inquiry: Is the reported Neu for CNC(=C[N+](=O)[O-])NCCSCc1ccc(CN(C)C)o1 strictly below 20%?
Reply text: TRUE

Inquiry: And the next one, O=C(OC[C@H]1O[C@@H](OC(=O)c2cc(O)c(O)c(OC(=O)c3cc(O)c(O)c(O)c3)c2)[C@H](OC(=O)c2cc(O)c(O)c(OC(=O)c3cc(O)c(O)c(O)c3)c2)[C@@H](OC(=O)c2cc(O)c(O)c(OC(=O)c3cc(O)c(O)c(O)c3)c2)[C@@H]1OC(=O)c1cc(O)c(O)c(OC(=O)c2cc(O)c(O)c(O)c2)c1)c1cc(O)c(O)c(OC(=O)c2cc(O)c(O)c(O)c2)c1 ?
Reply text: TRUE

Inquiry: How about this molecule: CCOc1ccc(NC(C)=O)cc1
Reply text: TRUE

Inquiry: And for COC(=O)C1=C(C)NC(C)=C(C(=O)OC)C1c1ccccc1[N+](=O)[O-] ?
Reply text: FALSE

Inquiry: And CN/C(=N/CCSCc1nc[nH]c1C)NC#N ?
Reply text: TRUE

Inquiry: Next molecule: Cc1nnc2n1-c1ccc(Cl)cc1C(c1ccccc1Cl)=NC2
Reply text: FALSE

====

Provide the recorded Neu for the entries that follow.
organism: Rattus norvegicus; test: Open TG-GATES - Regimen: Single; format: toxicity, organism-based, Sprague-Dawley; set-up: regimen Single, gender Male, age 6 weeks; details: in vivo, po, 1000 mg/kg, 6 h, tissue Blood, route gavage, dose level High
A number alone suffices; assume %.

Inquiry: Record request: Neu value, item COC(=O)C1=C(C)NC(C)=C(C(=O)OC)C1c1ccccc1[N+](=O)[O-]
Reply text: 18

Inquiry: And for CN/C(=N/CCSCc1nc[nH]c1C)NC#N ?
Reply text: 17.2

Inquiry: Same question, O=C(OC[C@H]1O[C@@H](OC(=O)c2cc(O)c(O)c(OC(=O)c3cc(O)c(O)c(O)c3)c2)[C@H](OC(=O)c2cc(O)c(O)c(OC(=O)c3cc(O)c(O)c(O)c3)c2)[C@@H](OC(=O)c2cc(O)c(O)c(OC(=O)c3cc(O)c(O)c(O)c3)c2)[C@@H]1OC(=O)c1cc(O)c(O)c(OC(=O)c2cc(O)c(O)c(O)c2)c1)c1cc(O)c(O)c(OC(=O)c2cc(O)c(O)c(O)c2)c1 this time
Reply text: 16.2

Inquiry: Please give the result for Cc1nnc2n1-c1ccc(Cl)cc1C(c1ccccc1Cl)=NC2 too.
Reply text: 20.4

Inquiry: Do the same for CNC(=C[N+](=O)[O-])NCCSCc1ccc(CN(C)C)o1 please
Reply text: 18.4

Data origin: ChEMBL document CHEMBL3885861
